# Test system: SR
# test-name: NCI tumour cell line growth inhibition, 48 h
Activity calls are given as the source filed them. Cut-off read from the data, not from the text of the source: active = GI50 up to about 1.1 µM and inactive = higher.
Lab note: assign the record to one of active, inactive

Ask: Would you mind telling me which call this test gave O=c1[nH]c2nc3ccccc3c(=O)n2/c1=C/c1ccccc1 ?
Reply: inactive

Ask: Next record, please: CCCC(=O)Nc1cn(COC)c(C(=O)N2C[C@@H]3C[C@]34C2=CC(=O)c2[nH]cc(C)c24)n1
Reply: active

Ask: Next record, please: CCOC(=O)CCC(NC(=O)Cc1ccc(Oc2nc3ccccc3nc2-c2ccccc2)cc1)C(=O)OCC (stereo unspecified)
Reply: inactive

Ask: Next record, please: COC(=O)NC1(NC(=O)OC)NC(=O)c2cc(OC)c(OC)cc2N1
Reply: inactive

Ask: Next record, please: Cc1nc2c(-c3ccccc3)[nH]c(C)c2c(=O)o1
Reply: inactive

Ask: Next record, please: CC(=O)OC(Cc1cc(C=C(C(F)(F)F)C(F)(F)F)cc(C)n1)(C(F)(F)F)C(F)(F)F
Reply: active

Ask: Next record, please: O=C(O)c1c(-c2ccccc2)c(=O)[nH]c2ccccc12
Reply: inactive

Ask: Next record, please: COc1ccc(C(=O)Nc2ccccc2C#N)cc1
Reply: inactive

Ask: Next record, please: CC[C@@H]([C@H](O)c1ccccc1Cl)[N+](=O)[O-]
Reply: active

Ask: Next record, please: CCn1c(=O)c2c3cc(O)ccc3oc2c2ccc(O)cc21
Reply: inactive

Ask: Next record, please: CCCCCCCCCCCCCCCCCCNc1ccn(C2OC(COP(=O)(O)OCC3OC(n4cc(F)c(NCCCCCCCCCCCCCCCCCC)nc4=O)CC3O)C(O)C2O)c(=O)n1 (stereo unspecified)
Reply: inactive

Ask: Next record, please: O=C(Nc1ccccc1)N(CCN(Cc1ccccc1)C(=O)Nc1ccccc1)CCN(Nc1ccccc1)C(=O)Nc1ccccc1
Reply: inactive

Ask: Next record, please: O=C1CCSc2nc(-c3ccc4c(c3)OCO4)nn21
Reply: inactive

Ask: Next record, please: O=C1C(c2ccccc2)=[N+]([O-])c2ccccc21
Reply: inactive

Ask: Next record, please: Cc1ccc(NC(=O)CCc2cc(C(C)(C)C)nc(S)n2)cc1C
Reply: inactive

Ask: Next record, please: CC(C)(C)C1CCC2c3c([nH]c4ccccc34)C3C(=O)N(c4ccc5c(c4)C(=O)c4ccccc4C5=O)C(=O)C3C2C1 (stereo unspecified)
Reply: inactive

Ask: Next record, please: OC1c2[nH]c3ccccc3c2CCN2CCCCC12 (stereo unspecified)
Reply: inactive

Ask: Next record, please: O=S(O)CCCCCSSSCCCCCS(=O)O
Reply: inactive

Ask: Next record, please: N#Cc1c(N)nc(Nc2cccc3ccccc23)c(C#N)c1C#N
Reply: inactive

Ask: Next record, please: O=C(CCC(=O)Nc1ccc(Cl)cc1)CC(=O)c1ccc2ccccc2c1
Reply: inactive

Ask: Next record, please: CCOC(=O)N(c1ccccc1)c1cc(=O)n2ccccc2n1
Reply: inactive

* * *

# Test system: OVCAR-3
# test-name: NCI tumour cell line growth inhibition, 48 h
The source made the active and inactive calls. Cut-off read from the data, not from the text of the source: active = GI50 up to about 1.1 µM and inactive = higher.
For each record, write down the corresponding GI50.

Ask: I'd like to know its GI50. The molecule in question is O=C1NC(N2CCOCC2)=N/C1=C\c1cccs1
Reply: > 100 µM (inactive)

Ask: Next record, please: O=[N+]([O-])/C(C(Cl)=C(Cl)Cl)=C1\NCCS1
Reply: 33.3 µM (inactive)

Ask: Next record, please: NC(CCCCO)C(=O)O (stereo unspecified)
Reply: > 100 µM (inactive)

Ask: Next record, please: CC(/C=N/N=C1NCCCCN1)=N\N=C1NCCCCN1
Reply: > 100 µM (inactive)

Ask: Next record, please: CCCC1=C(OC)C(=O)c2c(C)cc(Cl)nc2C1=O
Reply: 2.81 µM (inactive)

Ask: Next record, please: COC(=O)C1=C(O)C(C(=O)OC)[C@]2(O)[C@H](C(=O)OC)[C@H]1C[C@@H](c1ccc([N+](=O)[O-])cc1)[C@H]2C(=O)OC (stereo partly specified)
Reply: 25.1 µM (inactive)

Ask: Next record, please: CCNC(=O)/C(=C/c1ccc(OC)cc1)c1cc(OC)c(OC)c(OC)c1
Reply: 3.78 µM (inactive)

Ask: Next record, please: OCCSCC/C(=N\N=C(/CCSCCO)c1ccccc1)c1ccccc1
Reply: > 100 µM (inactive)

Ask: Next record, please: CCOC(=O)C(OCC1CC=CCC1)Sc1ccccc1 (stereo unspecified)
Reply: > 100 µM (inactive)

Ask: Next record, please: C[N+](C)(C)CC1CCCCC1=O (stereo unspecified)
Reply: 19.1 µM (inactive)

Ask: Next record, please: CN(C)/C=N/S(=O)(=O)c1nn2c(C=O)c(-c3ccc(-c4ccccc4)cc3)nc2s1
Reply: 1.92 µM (inactive)

* * *

# Test system: SK-MEL-28
# test-name: NCI tumour cell line growth inhibition, 48 h
Calls of active or inactive are those of the source. Rule as the data show it: active = GI50 up to about 1.1 µM and inactive = higher.
readout: GI50

Ask: Provide value of GI50 for this record tested with SK-MEL-28: Nc1ccc2n[se]nc2c1
Reply: > 100 µM (inactive)

Ask: Next record, please: C[N+]1(CCN=C=NC2CCCCC2)CCOCC1
Reply: > 100 µM (inactive)

Ask: Next record, please: CSc1cnn(CCC#N)c(=O)n1
Reply: > 100 µM (inactive)

Ask: Next record, please: CCCCCCCCCCCCCCCCCCNc1ccn(C2OC(COP(=O)(O)OCC3OC(n4cc(F)c(NCCCCCCCCCCCCCCCCCC)nc4=O)CC3O)C(O)C2O)c(=O)n1 (configuration not stated)
Reply: > 100 µM (inactive)

Ask: Next record, please: COC(c1ccsc1)C(C#N)(C#N)/N=C/c1ccsc1 (configuration not stated)
Reply: 18.6 µM (inactive)

Ask: Next record, please: O=C(/C(=C\C(=O)c1cccs1)c1ccsc1)c1ccc(Br)cc1
Reply: > 100 µM (inactive)

Ask: Next record, please: O=C1C=C(N2CCN(CCOCCO)CC2)C(=O)c2c(O)ccc(O)c21
Reply: 17.1 µM (inactive)

Ask: Next record, please: COc1ccc2c(c1)Cc1c-2[nH]c2cc3c(cc2c1=O)OCO3
Reply: 15.8 µM (inactive)

Ask: Next record, please: CCOC(=O)C1N(S(=O)(=O)c2ccc(C)cc2)CCC12c1ccccc1NC2c1ccc(OC)c(OC)c1 (configuration not stated)
Reply: > 100 µM (inactive)

Ask: Next record, please: O=C(CCC(=O)Nc1ccc(Cl)cc1)CC(=O)c1ccc2ccccc2c1
Reply: > 100 µM (inactive)

Ask: Next record, please: CCOC(=O)C1(NC(=O)OC(C)(C)C)CCc2[nH]oc(=O)c2C1 (configuration not stated)
Reply: > 100 µM (inactive)

Ask: Next record, please: OC1c2[nH]c3ccccc3c2CCN2CCCCC12 (configuration not stated)
Reply: > 100 µM (inactive)

* * *

# Tested on: KM-20L2
# test-name: NCI tumour cell line growth inhibition, 48 h
Activity calls are given as the source filed them. Rule as the data show it: active = GI50 up to about 1.1 µM and inactive = higher.
Lab note: assign the record to one of yes (1) = active, no (0) = inactive

Ask: Would you mind telling me which call this test gave C=CCN1C(=O)C(=O)N(CC=C)C(=O)C1=O ?
Reply: no (0)

Ask: Next record, please: C/C=C(/C)C(=O)O[C@H]1[C@H](O)CC(c2ccc3c(c2O)C(=O)C2=C(O)C4(OC)C(=O)C(C(N)=O)=C(O)[C@H](CC(=O)c5ccccc5O)C4CC2[C@@]3(C)OC)O[C@@H]1C (some centres undefined)
Reply: yes (1)

Ask: Next record, please: O=C1C[C@@H]2[C@@H](C=CC23CCCC3)N1O
Reply: no (0)

Ask: Next record, please: [O-]c1c2c(nn1-c1ccccc1)c1ccccc1c[n+]2Cc1ccccc1
Reply: no (0)

Ask: Next record, please: O=C(CCC(=O)Nc1ccc(Cl)cc1)CC(=O)c1ccc2ccccc2c1
Reply: no (0)

Ask: Next record, please: COC(=O)C(NC(=O)c1ccccc1)C(c1c(O)cc(O)cc1O)P(=O)(OC)OC (centres undefined)
Reply: no (0)

Ask: Next record, please: Nc1nc(=O)c2c([nH]1)NCC(CNc1ccc(C(=O)N[C@@H](CCC(=O)O)C(=O)O)cc1)N2C=O (some centres undefined)
Reply: no (0)

Ask: Next record, please: CC#COP(=O)(OCC)OCC
Reply: no (0)

Ask: Next record, please: CCNC(=O)/C(=C/c1ccc(OC)cc1)c1cc(OC)c(OC)c(OC)c1
Reply: no (0)

Ask: Next record, please: C=C1C(=O)O[C@@H]2[C@H](O)[C@@H](C)[C@@H]3C=CC(=O)[C@@]3(C)[C@H](OC(=O)C=C(C)C)[C@H]12
Reply: no (0)

Ask: Next record, please: O=C1C=C(O)C(=Cc2c(O)cc(O)cc2O)C(O)=C1
Reply: no (0)

Ask: Next record, please: CCOC(=O)C(OCC1CC=CCC1)Sc1ccccc1 (centres undefined)
Reply: no (0)

Ask: Next record, please: CCCCCCCCCC[C@@H](O)[C@@H]1CC[C@H]([C@H]2CC[C@@H]([C@@H](O)CCCCCCCCCC[C@H]3CC(CC(C)=O)C(=O)O3)O2)O1 (some centres undefined)
Reply: no (0)

Ask: Next record, please: COC(=O)c1cc2ccccc2c2nc3ccccc3c(Cl)c12
Reply: no (0)

Ask: Next record, please: O=c1[nH]c2ccccc2n1C1CCN(CCCC(c2ccc(F)cc2)c2ccc(F)cc2)CC1 [PIMOZIDE]
Reply: no (0)

Ask: Next record, please: C/C(=C1/CCCC2(N=NCC2c2ccccc2)C1=O)c1ccccc1 (centres undefined)
Reply: no (0)

Ask: Next record, please: CC(N)Cc1cccc(C(F)(F)F)c1 (centres undefined)
Reply: no (0)

Ask: Next record, please: COc1ccc(C[C@@H]2NC[C@@H](O)[C@@H]2OC(C)=O)cc1
Reply: no (0)

Ask: Next record, please: COC(=O)C1=C(C(=O)OC)C23CC1C1C(C(=O)OC)=C(C(=O)OC)C12C1C=CC3C2C(=O)OC(=O)C21 (centres undefined)
Reply: no (0)
